experimental_system: CDK4/Cyclin D1 (Homo sapiens (Human), UniProt P11802)
Sequence (P11802 whole entry): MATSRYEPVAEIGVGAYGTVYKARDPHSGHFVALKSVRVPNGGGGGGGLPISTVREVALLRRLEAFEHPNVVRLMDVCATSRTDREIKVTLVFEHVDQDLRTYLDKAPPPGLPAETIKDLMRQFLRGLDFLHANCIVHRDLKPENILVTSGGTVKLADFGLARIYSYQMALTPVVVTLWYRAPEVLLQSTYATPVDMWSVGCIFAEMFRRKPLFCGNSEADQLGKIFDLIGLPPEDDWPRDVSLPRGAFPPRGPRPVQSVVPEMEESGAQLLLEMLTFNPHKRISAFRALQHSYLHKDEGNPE
Sequence (P24385 whole entry partner): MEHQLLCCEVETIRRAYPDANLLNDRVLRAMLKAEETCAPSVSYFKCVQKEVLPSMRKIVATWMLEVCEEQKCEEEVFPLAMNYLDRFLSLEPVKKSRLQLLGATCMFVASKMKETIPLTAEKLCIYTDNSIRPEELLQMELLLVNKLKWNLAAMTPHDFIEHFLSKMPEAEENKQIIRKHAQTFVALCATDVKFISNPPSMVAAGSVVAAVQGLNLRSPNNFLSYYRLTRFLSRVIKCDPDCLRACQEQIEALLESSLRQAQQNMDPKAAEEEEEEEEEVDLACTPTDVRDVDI
assay_explanation: CDK4/Cyclin D1 CHEF Assay (AQT0258 peptide)
Assay type: biochemical
stated_conditions: 200 uM ATP, read-out: CDK4/ CyclinD1 AQT IC50
measure_name: IC50

Some compounds with recorded IC50:
{"compound": "Cc1cc2cnc(NC3CCN(S(C)(=O)=O)CC3)nc2c(N2CC3(CNCC3F)C2)n1 (stereo not drawn)", "reported_value": "< 0.2 µM"}
{"compound": "Cc1cc2cnc(NC3CCN(S(=O)(=O)C4CC4)CC3)nc2c(N2CC3(CNC3)C2)n1", "reported_value": "< 0.2 µM"}
{"compound": "Cc1cc2cnc(NC3CCN(S(=O)(=O)C4(C)CC4)CC3)nc2c(C2CC(C)(O)C2)n1 (stereo not drawn)", "reported_value": "0.5 to 2 µM"}
{"compound": "Cc1cc2cnc(Nc3ccc4c(c3)CN(C3CC3)C4)nc2c(N2CC3(CCNC3)C2)n1", "reported_value": "< 0.2 µM"}
{"compound": "Cc1cc2cnc(NC3CCN(S(=O)(=O)C4CC4)CC3)nc2c(N2CC(C#N)(CCF)C2)n1", "reported_value": "0.2 to 0.5 µM"}

Find IC50 (CDK4/Cyclin D1 (Homo sapiens (Human), UniProt P11802)) for the entry Cc1cc2cnc(NC3CCN(S(=O)(=O)C4CC4)CC3)nc2c(N2CC3(C2)CN(C2CC2)C3)n1
< 0.2 µM

Subsequent entry: CS(=O)(=O)N1CCC(Nc2ncc3cc(C(F)F)nc(N4CC5(CNCCC5(F)F)C4)c3n2)CC1
< 0.2 µM

// query: Cc1cc2cnc(NC3CCN(S(=O)(=O)C4CC4)CC3)nc2c(N2CC3(C2)CC(C)(O)C3)n1
< 0.2 µM

Another: Cc1cc2cnc(NC3CCN(S(=O)(=O)c4cnn(C)c4)CC3)nc2c(N2CC3(CCNCC3(F)F)C2)n1
< 0.2 µM

Note, next up: Cc1cc2cnc(Nc3ccc4c(c3)CN(C3CN(S(C)(=O)=O)C3)C4)nc2c(N2CC3(CN(C)C3)C2)n1
< 0.2 µM

Would you mind doing Cc1cc2cnc(NC3CCN(S(C)(=O)=O)CC3)nc2c(N2CC3(CNC(=O)C3)C2)n1 as well?
< 0.2 µM

Request: Cc1cc2cnc(N[C@H]3CC[C@H](CN(C)C)CC3)nc2c(N2CCC3(C2)CC3(F)F)n1 (stereo partly drawn)
< 0.2 µM

Item: Cc1cc2cnc(Nc3cnn(CC4(N(C)C)CC4)c3)nc2c(N2CCC(C#N)(C3CC3)C2)n1 (stereo not drawn)
0.5 to 2 µM

Could you do the same for COCCN1CC2(C1)CN(c1nc(C3CC3)cc3cnc(NC4CCN(S(=O)(=O)CC5CCC5)CC4)nc13)C2 , please?
< 0.2 µM

Similarly, Cc1cc2cnc(NC3CCN(S(C)(=O)=O)CC3)nc2c(N2CC3(CNCC3(F)F)C2)n1 ?
< 0.2 µM
